assay_target: T1, class I MHC receptor HLA-A2 on T2 cells (human)
T1 construct: detected on the cell surface with a mouse anti-human HLA-A2 monoclonal antibody and goat anti-mouse IgG F(ab')2-FITC; also called HLA-A2 receptor; HLA-A2 class I MHC
method_summary: T2 cells, anti-HLA-A2 flow cytometry after brefeldin A; Average; 0 hr
assay_readout: fluorescence index (F.I.)

[[record]]
binder = "LILGLVWTL [Filamin B peptide #1]"
assay_readout = "fluorescence index"
unit_string = "F.I."
val = 2.82

[[record]]
binder = "SLQESGLKV [Filamin B peptide #4]"
assay_readout = "fluorescence index"
unit_string = "F.I."
val = 1.79

[[record]]
binder = "GQGDVMVFV [Filamin B peptide #6]"
assay_readout = "fluorescence index"
unit_string = "F.I."
val = 2.32

[[record]]
binder = "KLILGLVWT [Filamin B peptide #7]"
assay_readout = "fluorescence index"
unit_string = "F.I."
val = 1.32

[[record]]
binder = "GLAPLEVRV [Filamin B peptide #3]"
assay_readout = "fluorescence index"
unit_string = "F.I."
val = 3.93

